target: Neuropeptide Y receptor type 1 (Homo sapiens, UniProt P25929); experiment: Displacement of [3H]UR-MK299 from human Y1R expressed in SK-N-MC cells; assay type: cell-based; conditions: read-out: pKi (converted)
Sequence (P25929 whole entry): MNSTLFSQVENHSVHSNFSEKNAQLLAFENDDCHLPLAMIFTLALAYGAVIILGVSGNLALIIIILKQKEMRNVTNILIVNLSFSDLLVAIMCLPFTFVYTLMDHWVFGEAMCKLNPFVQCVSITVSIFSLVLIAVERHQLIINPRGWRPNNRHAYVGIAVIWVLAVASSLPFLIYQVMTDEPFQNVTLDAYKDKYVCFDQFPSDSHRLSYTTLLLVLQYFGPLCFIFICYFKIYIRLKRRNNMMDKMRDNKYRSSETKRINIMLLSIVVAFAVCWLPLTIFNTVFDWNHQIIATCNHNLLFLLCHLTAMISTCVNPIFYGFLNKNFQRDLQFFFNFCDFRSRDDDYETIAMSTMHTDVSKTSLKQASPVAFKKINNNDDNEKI
Starred links: 1 amine or outer side, 2 acyl side, 3 side chain; linkers in the order of their positions; H or OH if unused. Positions of bridges follow the written chain, without caps; N, C: chain ends. Non-standard residues stand in square brackets, D forms with d. Residues, ends and D or L forms follow the SMILES beside them. Arg(Nω-CO) = N/C(=N\C(=O)[*:3])NCCC[C@H](N[*:1])C(=O)[*:2]; Ethylenediamine = C(CN[*:2])N[*:1]
# maps each entry to its Ki

| compound | assayTarget | Ki |
| --- | --- | --- |
| CC(C)C[C@H](NC(=O)[C@@H]1CCCN/C(N)=N/C(=O)NCCNC(=O)CC[C@H](N)C(=O)N[C@@H](CCCNC(=N)N)C(=O)N[C@@H](Cc2ccc(O)cc2)C(=O)N1)C(=O)N[C@@H](CCCNC(=N)N)C(=O)N[C@@H](Cc1ccc(O)cc1)C(N)=O (H-ERY[Arg(Nω-CO)]LRY-NH2; linker 1-4 via Ethylenediamine) | Neuropeptide Y receptor type 1 (Homo sapiens, UniProt P25929) | > 1 µM |
| CCC(=O)NCCCC(=O)N[C@@H]1CC(=O)N[C@@H](CCCNC(=N)N)C(=O)N[C@@H](Cc2ccc(O)cc2)C(=O)N[C@H](C(=O)N[C@@H](CC(C)C)C(=O)N[C@@H](CCCNC(=N)N)C(=O)N[C@@H](Cc2ccc(O)cc2)C(N)=O)CCCN/C(N)=N/C(=O)NCCCCNC1=O.O=C(O)C(F)(F)F.O=C(O)C(F)(F)F.O=C(O)C(F)(F)F | Neuropeptide Y receptor type 1 (Homo sapiens, UniProt P25929) | > 1 µM |
| CC(C)C[C@H](NC(=O)[C@@H]1CCCN/C(N)=N/C(=O)NCCCCNC(=O)C[C@@H](N)C(=O)N[C@@H](CCCNC(=N)N)C(=O)N[C@@H](Cc2ccc(O)cc2)C(=O)N1)C(=O)N[C@@H](CCCNC(=N)N)C(=O)N[C@@H](Cc1ccc(O)cc1)C(N)=O | Neuropeptide Y receptor type 1 (Homo sapiens, UniProt P25929) | > 1 µM |
| CCC(=O)N[C@H]1CC(=O)NCCCCNC(=O)/N=C(\N)NCCC[C@@H](C(=O)N[C@@H](CC(C)C)C(=O)N[C@@H](CCCNC(=N)N)C(=O)N[C@@H](Cc2ccc(O)cc2)C(N)=O)NC(=O)[C@H](Cc2ccc(O)cc2)NC(=O)[C@H](CCCNC(=N)N)NC1=O | Neuropeptide Y receptor type 1 (Homo sapiens, UniProt P25929) | > 1 µM |
| CC(C)C[C@H](NC(=O)[C@@H]1CCCN/C(N)=N/C(=O)NCCCCNC(=O)[C@H](NC(=O)CCCN)CC(=O)N[C@@H](CCCNC(=N)N)C(=O)N[C@@H](Cc2ccc(O)cc2)C(=O)N1)C(=O)N[C@@H](CCCNC(=N)N)C(=O)N[C@@H](Cc1ccc(O)cc1)C(N)=O | Neuropeptide Y receptor type 1 (Homo sapiens, UniProt P25929) | > 1 µM |
| CCC(=O)N[C@H]1CC(=O)N[C@@H](CCCNC(=N)N)C(=O)N[C@@H](Cc2ccc(O)cc2)C(=O)N[C@H](C(=O)N[C@@H](CC(C)C)C(=O)N[C@@H](CCCNC(=N)N)C(=O)N[C@@H](Cc2ccc(O)cc2)C(N)=O)CCCN/C(N)=N/C(=O)NCCCCNC1=O | Neuropeptide Y receptor type 1 (Homo sapiens, UniProt P25929) | > 1 µM |

Prompt: Report Ki for "CCC(=O)N[C@@H]1CC(=O)N[C@@H](CCCNC(=N)N)C(=O)N[C@@H](Cc2ccc(O)cc2)C(=O)N[C@H](C(=O)N[C@@H](CC(C)C)C(=O)N[C@@H](CCCNC(=N)N)C(=O)N[C@@H](Cc2ccc(O)cc2)C(N)=O)CCCN/C(N)=N/C(=O)NCCCCNC1=O" please.
Response: > 1 µM

* * *

target: Neuropeptide Y receptor type 4 (Homo sapiens, UniProt P50391); experiment: Displacement of [3H]-(9S,12S,15S,19R,E)-4-amino-N-((S)-1-(((S)-1-(((S)-1-amino-3-(4-hydroxyphenyl)-1-oxopropan-2-yl)amino)-5-guanidino-1-oxopentan-2-yl)amino)-4-methyl-1-oxopentan-2-yl)-15-(3-guanidinopropyl)-12-(4-hydroxybenzyl)-2,11,14,17,20-pentaoxo-19-(4-(propanamido-2,3-t2)butanamido)-1,3,5,10,13,16,21-heptaazacyclopentacos-3-ene-9-carboxamide from human Y4R expressed in CHO cells coexpressing Gqi5-mtAEQ under isotonic sodium containing buffer condition; format: cell-based; details: read-out: Ki
Sequence (P50391 whole entry): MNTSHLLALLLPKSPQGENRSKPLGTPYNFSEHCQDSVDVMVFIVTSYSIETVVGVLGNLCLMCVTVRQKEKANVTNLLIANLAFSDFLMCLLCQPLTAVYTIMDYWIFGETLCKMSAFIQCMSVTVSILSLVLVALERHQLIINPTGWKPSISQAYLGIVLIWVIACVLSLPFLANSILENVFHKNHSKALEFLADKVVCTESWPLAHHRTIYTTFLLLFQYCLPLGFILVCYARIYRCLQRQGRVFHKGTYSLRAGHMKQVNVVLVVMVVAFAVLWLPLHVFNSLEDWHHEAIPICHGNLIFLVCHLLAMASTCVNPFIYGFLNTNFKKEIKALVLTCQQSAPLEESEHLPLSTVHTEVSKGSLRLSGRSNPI
metricName: Ki (nM)
Provide only the numeric value, understood in nM.

Some compounds with recorded Ki:
| compound | Ki [nM] |
| --- | --- |
| CC(C)C[C@H](NC(=O)[C@@H]1CCCNC(=N)NC(=O)NCCCCNC(=O)CCC(=O)N[C@@H](CCCNC(=N)N)C(=O)N[C@@H](Cc2ccc(O)cc2)C(=O)N1)C(=O)N[C@@H](CCCNC(=N)N)C(=O)N[C@@H](Cc1ccc(O)cc1)C(N)=O | 0.076 |
| [3H]CC([3H])C(=O)NCCCCNC(=O)/N=C(\N)NCCCC[C@H](NC(=O)[C@H](Cc1ccc(O)cc1)NC(=O)CCCCCCC(=O)N[C@@H](Cc1ccc(O)cc1)C(=O)N[C@@H](CCCNC(=N)N)C(=O)N[C@@H](CC(C)C)C(=O)N[C@@H](CCCNC(=N)N)C(=O)N[C@@H](Cc1ccc(O)cc1)C(N)=O)C(=O)N[C@@H](CC(C)C)C(=O)N[C@@H](CCCNC(=N)N)C(=O)N[C@@H](Cc1ccc(O)cc1)C(N)=O (stereo partly drawn) | 6.7 |

Prompt: Report Ki for "CCC(=O)NCCCC(=O)N[C@@H]1CC(=O)N[C@@H](CCCNC(=N)N)C(=O)N[C@@H](Cc2ccc(O)cc2)C(=O)N[C@H](C(=O)N[C@@H](CC(C)C)C(=O)N[C@@H](CCCNC(=N)N)C(=O)N[C@@H](Cc2ccc(O)cc2)C(N)=O)CCCN/C(N)=N/C(=O)NCCCCNC1=O.O=C(O)C(F)(F)F.O=C(O)C(F)(F)F.O=C(O)C(F)(F)F" please.
Response: 0.088

* * *

molecular target: Neuropeptide Y receptor type 4 (Homo sapiens, UniProt P50391); experiment: Agonist activity at human Y4R expressed in HEK293T cells incubated for 60 mins by cAMP CAMYEN assay relative to control; format: functional, cell-based; details: filed as agonist
Starred links: 1 amine or outer side, 2 acyl side, 3 side chain; linkers in the order of their positions; H or OH if unused. Positions of bridges follow the written chain, without caps; N, C: chain ends. Non-standard residues stand in square brackets, D forms with d. Residues, ends and D or L forms follow the SMILES beside them. *: point of attachment. Arg(Nω-CO) = N/C(=N\C(=O)[*:3])NCCC[C@H](N[*:1])C(=O)[*:2]; Ethylenediamine = C(CN[*:2])N[*:1]; Propionyl = CCC(=O)*
metricName: Emax (%)

| compound | unitAnnotation | Emax |
| --- | --- | --- |
| CCC(=O)N[C@H]1CCC(=O)NCCNC(=O)/N=C(\N)NCCC[C@@H](C(=O)N[C@@H](CC(C)C)C(=O)N[C@@H](CCCNC(=N)N)C(=O)N[C@@H](Cc2ccc(O)cc2)C(N)=O)NC(=O)[C@H](Cc2ccc(O)cc2)NC(=O)[C@H](CCCNC(=N)N)NC1=O (Propionyl-ERY[Arg(Nω-CO)]LRY-NH2; linker 1-4 via Ethylenediamine) | % | 86 |
| CCC(=O)NCCCC(=O)N[C@@H]1CC(=O)N[C@@H](CCCNC(=N)N)C(=O)N[C@@H](Cc2ccc(O)cc2)C(=O)N[C@H](C(=O)N[C@@H](CC(C)C)C(=O)N[C@@H](CCCNC(=N)N)C(=O)N[C@@H](Cc2ccc(O)cc2)C(N)=O)CCCN/C(N)=N/C(=O)NCCCCNC1=O.O=C(O)C(F)(F)F.O=C(O)C(F)(F)F.O=C(O)C(F)(F)F | % | 83 |
| CCC(=O)N[C@H]1CC(=O)NCCCCNC(=O)/N=C(\N)NCCC[C@@H](C(=O)N[C@@H](CC(C)C)C(=O)N[C@@H](CCCNC(=N)N)C(=O)N[C@@H](Cc2ccc(O)cc2)C(N)=O)NC(=O)[C@H](Cc2ccc(O)cc2)NC(=O)[C@H](CCCNC(=N)N)NC1=O | % | 83 |
| CC(C)C[C@H](NC(=O)[C@@H]1CCCNC(=N)NC(=O)NCCCCNC(=O)CCC(=O)N[C@@H](CCCNC(=N)N)C(=O)N[C@@H](Cc2ccc(O)cc2)C(=O)N1)C(=O)N[C@@H](CCCNC(=N)N)C(=O)N[C@@H](Cc1ccc(O)cc1)C(N)=O | % | 113 |
| CCC(=O)N[C@@H]1CC(=O)NCCCCNC(=O)/N=C(\N)NCCC[C@@H](C(=O)N[C@@H](CC(C)C)C(=O)N[C@@H](CCCNC(=N)N)C(=O)N[C@@H](Cc2ccc(O)cc2)C(N)=O)NC(=O)[C@H](Cc2ccc(O)cc2)NC(=O)[C@H](CCCNC(=N)N)NC1=O | % | 81 |
| CCC(=O)N[C@H]1CC(=O)N[C@@H](CCCNC(=N)N)C(=O)N[C@@H](Cc2ccc(O)cc2)C(=O)N[C@H](C(=O)N[C@@H](CC(C)C)C(=O)N[C@@H](CCCNC(=N)N)C(=O)N[C@@H](Cc2ccc(O)cc2)C(N)=O)CCCN/C(N)=N/C(=O)NCCCCNC1=O | % | 82 |
| CCC(=O)N[C@@H]1CC(=O)N[C@@H](CCCNC(=N)N)C(=O)N[C@@H](Cc2ccc(O)cc2)C(=O)N[C@H](C(=O)N[C@@H](CC(C)C)C(=O)N[C@@H](CCCNC(=N)N)C(=O)N[C@@H](Cc2ccc(O)cc2)C(N)=O)CCCN/C(N)=N/C(=O)NCCCCNC1=O | % | 85 |

Values from ChEMBL document CHEMBL5370598
